FYI, the data here is from paper PMC3969223.

Target chain: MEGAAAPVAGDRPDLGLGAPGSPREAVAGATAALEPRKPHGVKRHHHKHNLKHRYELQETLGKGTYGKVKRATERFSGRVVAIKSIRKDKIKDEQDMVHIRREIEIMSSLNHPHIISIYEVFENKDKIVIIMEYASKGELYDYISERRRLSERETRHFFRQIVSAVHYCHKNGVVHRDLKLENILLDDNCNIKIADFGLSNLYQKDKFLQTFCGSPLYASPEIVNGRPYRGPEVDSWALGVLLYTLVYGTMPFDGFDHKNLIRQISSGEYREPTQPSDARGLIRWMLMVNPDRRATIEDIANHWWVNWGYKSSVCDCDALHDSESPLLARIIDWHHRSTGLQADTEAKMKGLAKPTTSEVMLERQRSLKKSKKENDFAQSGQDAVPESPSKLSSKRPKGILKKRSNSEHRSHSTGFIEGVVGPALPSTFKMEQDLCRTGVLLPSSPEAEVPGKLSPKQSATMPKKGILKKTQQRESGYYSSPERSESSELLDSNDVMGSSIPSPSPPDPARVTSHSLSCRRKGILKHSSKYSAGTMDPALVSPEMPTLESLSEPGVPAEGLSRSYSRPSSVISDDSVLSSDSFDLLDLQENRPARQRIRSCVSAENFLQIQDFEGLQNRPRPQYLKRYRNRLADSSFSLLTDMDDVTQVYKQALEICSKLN
MEASURED_QUANTITY: pIC50
Please report pIC50 as the negative decimal logarithm of the molar concentration, giving only the number.

CCC(=O)Nc1cccc(Oc2nc(Nc3ccc(N4CCN(C)CC4)cc3OC)ncc2Cl)c1
7.70

Entry `Cc1nc(Nc2cnn(C3CCNCC3)c2)nc2c1N(C)C(=O)c1cc3ccccc3cc1N2C` , pIC50 reported as 7.00

###

Target: NUAK2 (Homo sapiens, UniProt Q9H093)
Construct: made in house; host or cells: HEK-293 cells, transient transfection of pEBG2T construct
Sequence (Q9H093 1-628): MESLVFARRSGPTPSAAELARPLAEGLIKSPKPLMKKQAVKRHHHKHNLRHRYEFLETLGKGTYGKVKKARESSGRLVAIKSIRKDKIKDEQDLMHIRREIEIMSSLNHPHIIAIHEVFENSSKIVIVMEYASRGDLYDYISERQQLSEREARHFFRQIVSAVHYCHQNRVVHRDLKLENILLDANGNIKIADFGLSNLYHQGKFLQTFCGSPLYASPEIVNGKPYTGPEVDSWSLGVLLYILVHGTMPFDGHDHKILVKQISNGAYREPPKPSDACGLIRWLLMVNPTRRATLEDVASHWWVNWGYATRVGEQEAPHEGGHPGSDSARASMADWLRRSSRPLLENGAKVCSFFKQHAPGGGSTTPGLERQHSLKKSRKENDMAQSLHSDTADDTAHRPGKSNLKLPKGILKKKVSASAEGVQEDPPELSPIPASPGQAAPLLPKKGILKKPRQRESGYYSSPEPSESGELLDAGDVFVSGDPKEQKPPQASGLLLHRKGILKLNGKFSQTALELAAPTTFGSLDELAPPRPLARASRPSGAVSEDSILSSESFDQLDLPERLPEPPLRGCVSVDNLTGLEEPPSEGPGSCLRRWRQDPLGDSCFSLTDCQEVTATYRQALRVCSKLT
Assay: GST–NUAK2 Sakamototide peptide kinase assay
Type: biochemical
Conditions: 200 μM Sakamototide, 100 μM [γ-32P]ATP; read-out: IC50 for NUAK2 (wild-type GST–NUAK2)
MEASURED_QUANTITY: IC50 (nM)
// return numeric value only (unit: nM, not printed)

The reported IC50 of the molecule CCC(=O)Nc1cccc(Oc2nc(Nc3ccc(N4CCN(C)CC4)cc3OC)ncc2Cl)c1 [WZ4003] was 100

###

Target: NUAK2 (Homo sapiens, UniProt Q9H093)
Construct: made in house; host or cells: HEK-293 cells, transient transfection of pEBG2T construct
Experiment: GST–NUAK2 Sakamototide peptide kinase assay
Format: biochemical
Conditions: 200 μM Sakamototide, 100 μM [γ-32P]ATP; bound given in text; read-out: IC50 for NUAK2
MEASURED_QUANTITY: IC50

Short answer on NUAK2 (Homo sapiens, UniProt Q9H093) for `Cc1nc(Nc2cnn(C3CCNCC3)c2)nc2c1N(C)C(=O)c1cc3ccccc3cc1N2C` , IC50: > 10 µM

###

Reported pIC50 values for the following compounds.
Target: NUAK1[A195T] (Homo sapiens, UniProt O60285, A195T)
Sequence (O60285 whole entry A195T): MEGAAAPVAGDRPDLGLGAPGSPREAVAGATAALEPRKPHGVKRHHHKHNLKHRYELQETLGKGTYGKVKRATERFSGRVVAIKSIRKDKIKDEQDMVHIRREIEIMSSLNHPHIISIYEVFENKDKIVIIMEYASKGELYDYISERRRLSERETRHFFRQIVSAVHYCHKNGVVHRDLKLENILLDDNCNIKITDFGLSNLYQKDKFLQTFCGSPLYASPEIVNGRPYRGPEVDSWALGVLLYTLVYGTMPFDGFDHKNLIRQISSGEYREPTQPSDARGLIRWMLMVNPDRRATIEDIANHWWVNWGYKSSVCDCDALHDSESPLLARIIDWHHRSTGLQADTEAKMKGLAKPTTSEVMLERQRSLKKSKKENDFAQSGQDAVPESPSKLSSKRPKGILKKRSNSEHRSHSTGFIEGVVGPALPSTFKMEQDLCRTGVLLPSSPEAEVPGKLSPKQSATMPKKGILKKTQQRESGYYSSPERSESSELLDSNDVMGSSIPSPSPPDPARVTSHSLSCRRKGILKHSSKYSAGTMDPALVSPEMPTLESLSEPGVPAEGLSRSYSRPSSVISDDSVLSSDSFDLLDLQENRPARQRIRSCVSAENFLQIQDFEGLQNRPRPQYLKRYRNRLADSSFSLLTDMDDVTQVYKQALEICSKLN
Test: GST–NUAK1[A195T] Sakamototide peptide kinase assay
Conditions: 200 μM Sakamototide, 100 μM [γ-32P]ATP
Convention used: pIC50 is expressed as -log10 of the molar concentration.

Consider the reported pIC50 for these compounds:
CN1C(=O)c2cc3ccccc3cc2N(C)c2nc(Nc3cnn(C4CCNCC4)c3)ncc21 [XMD-18-42]
5.82
CCC(=O)Nc1cccc(Oc2nc(Nc3ccc(N4CCN(C)CC4)cc3OC)ncc2Cl)c1 [WZ4003]
6.05
CN1C(=O)c2ccccc2N(C)c2nc(Nc3cnn(C4CCNCC4)c3)ncc21 [XMD-17-51]
6.22

Value of measured pIC50 for the entry Cc1nc(Nc2cnn(C3CCNCC3)c2)nc2c1N(C)C(=O)c1cc3ccccc3cc1N2C [HTH-01-015] : 5.23

###

Test system: panel of 140 protein kinases
Assay: Protein kinase profiling, whole panel
Format: biochemical
Settings: 1 μM, panel of 140 kinases
MEASURED_QUANTITY: Selectivity over the other kinases of the panel (in words)

CN1C(=O)c2ccccc2N(C)c2nc(Nc3cnn(C4CCNCC4)c3)ncc21
less selective
CN1C(=O)c2cc3ccccc3cc2N(C)c2nc(Nc3cnn(C4CCNCC4)c3)ncc21
less selective
